Ref: the supplement of paper PMC9732359

Assay: protein stability index of a GFP-peptide fusion (yeast GPS) (PSI 1-4); higher = more stable; sorted into four equal gates, so the index is relative within each strain
Details: san1∆
parameter: protein stability index
Please reply with the number alone, leaving off any unit.

EATAASHERFFLSQGLH [CSN12] | 1.09

// PTKTLTTKERKKSRLGN [PRP8] : protein stability index value = 2.91

Measured protein stability index of DWIRFVSTKTNEYRLAF [RPL22A] : 2.75

The recorded protein stability index for entry EPNLAAQQDSTNVRLYS [ECM29] equals 2.81

Looking up REMRRKVYAQLLESYKT [RPN7] , I found its protein stability index recorded as 2.32

The sequence ERKRKSVRGAIVGPDLA [RPS6A] showed protein stability index equal to 3.33

Entry KVEKGVNIEPFNIDDEI [LIN1] — recorded protein stability index = 3.45
